Origin of measurements: ChEMBL document CHEMBL1124433

System: L1210
Assay: Concentration that inhibits the proliferation of L1210 cells by 50%
Type: functional, cell-based
Settings: Mus musculus
pIC50: −log10 of the molar value.
Label 1 (yes) for high-side pIC50 (at or above 6) and 0 (no) for low-side pIC50 (below it).

In [3]: df
Out[3]:
                                    compound  classification
 0  CC[C@@]1(O)C(=O)NCc2c1cc1n(c2=O)Cc2cc3ccccc3nc2-1          0 (no)
 1      O=c1c2cocc2c(O)c2n1Cc1cc3ccccc3nc1-2         1 (yes)
 2  CC[C@@]1(OC(C)=O)C(=O)OCc2c1cc1n(c2=O)Cc2cc3ccccc3nc2-1         1 (yes)
 3  CC[C@H]1C(=O)OCc2c1cc1n(c2=O)Cc2cc3ccccc3nc2-1         1 (yes)
 4  CCC1(O)OCc2c1cc1n(c2=O)Cc2cc3ccccc3nc2-1 (configuration not stated)          0 (no)
 5     O=C1OCc2c1cc1n(c2=O)Cc2cc3ccccc3nc2-1          0 (no)
 6  CC[C@]1(O)c2cc3n(c(=O)c2COC1O)Cc1cc2ccccc2nc1-3 (some centres not stated)          0 (no)
 7  CC[C@@]1(O)C(=O)OCc2c1cc1n(c2=O)Cc2cc3ccccc3nc2-1 [CAMPTOTHECIN]         1 (yes)
 8  CCC1OC(=O)c2c1cc1n(c2=O)Cc2cc3ccccc3nc2-1 (configuration not stated)          0 (no)
 9  CC[C@@]1(O)C(=O)SCc2c1cc1n(c2=O)Cc2cc3ccccc3nc2-1          0 (no)
10  CC[C@@](O)(C(=O)O)c1cc2n(c(=O)c1CO)Cc1cc3ccccc3nc1-2         1 (yes)
11  C=C1CC(CC)(c2cc3n(c(=O)c2C)Cc2cc4ccccc4nc2-3)OC1=O (configuration not stated)         1 (yes)
